Values compiled from the supplement of paper PMC11865577.

Listing of recorded pull-down binding Z-score by entry.
# Tested on: TO-3-N3 (biotin conjugate)
# Test Details: pull-down binding Z-score (relative to library population); higher = stronger binding
# Assay Conditions: RNA library: Library-2
# answer = number (no unit)

// pull-down binding Z-score value for CAGGGGUUCUGAUAAACCCUUC [hsa-mir-6738] : 0.622

// pull-down binding Z-score value for `CAAAUGUGCCUUUCAACUCUCAUGAAGUGUGAUCAUUGUGGUGAAACUUCAUGGCAGACGGGCGAUUUUG` : -0.685

// pull-down binding Z-score value for CCGGUAAGGACGAUACUUACCUG [U1snRNP5ss-23] : 0.363

// pull-down binding Z-score value for UGGGCUCCCCUAGACUAGGACUCCA [hsa-mir-1825] : -0.367

// pull-down binding Z-score value for GCAGCUGGAAUUCAAGCCCUGCUGC [hsa-mir-6882] : -0.477

// pull-down binding Z-score value for AUCACUGAAAUAUGUCUGAGCUUCUGUU [hsa-mir-4501] : -0.584

// pull-down binding Z-score value for CGUUCGGAUGCUCGAACUGCACCUCAUGGUCAUGUUAUGGUUGAGCUGGUAGCAGAACUCGAAGGCAUUCAGUACG [SHAPE_invitro_SARS-CoV-2_Motif_11] : -0.289

// pull-down binding Z-score value for GGAGACACUUUCACUAUAUAUAGUGGCUCC [hsa-mir-3156-2] : -0.948

// pull-down binding Z-score value for AGGCUCUGCAAGAUCAACCGAGCA [hsa-mir-330] : 0.196

// pull-down binding Z-score value for AUUAUGUGUACCUUCCUUACCCAGAUCCAUCAAGAAUCCUAGGGGCCGGCUGUUUUGUAGAUGAUAUCGUAAAAACAGAUGGUACACUUAUGAU [DMSMaPseq_invitro_SARS-CoV-2_Multi_47_ComplexLevel_1] : -0.234

// pull-down binding Z-score value for `CAUGUGAUCUGCACCUCUGAAGACAUG` : 0.111

// pull-down binding Z-score value for GAGGGAUGAGUGCACUUCACCUGC [hsa-mir-4435-1_4435-2] : -0.191

// pull-down binding Z-score value for GGAUGGGAGACCUGACCCAUCC [hsa-mir-5195] : -0.0606

// pull-down binding Z-score value for UGGGUAGAAAGUAUUAUUCUAUUCA [hsa-mir-664b] : 0.0201

// pull-down binding Z-score value for ACUUAAGCACCAGGUAAAAUCUGGUGCUUAAGU [hsa-mir-4720] : -1.09

// pull-down binding Z-score value for GGGGCCUGUGGUCCC [hsa-mir-1268a] : -0.0124

// pull-down binding Z-score value for UACUAAUAUGUUUACACCACUAAUUCAACCUAUUGGUGCUUUGGACAUAUCAGCAUCUAUAGUAGCUGGUGGUAUUGUAGCUAUCGUAGUA [SHAPE_invivo_SARS-CoV-2_Motif_188] : 0.0327

// pull-down binding Z-score value for CUAUGGCCCCCCUCCUCUCUGAAAGCAAGGCCACUUG [hsa-mir-8081] : 0.3

// pull-down binding Z-score value for UGGAGUCAGUAUUGGUCUGGCCA [hsa-mir-4255] : -0.417

// pull-down binding Z-score value for GAGGCCAGAGGUGCCC [hsa-mir-4292] : -0.0325

// pull-down binding Z-score value for GUCUGGGAUCAACGAGUCAGCGGAC [IAV_invivo_PB1_2_Motif_28+IAV_invivo_PB1_2_Motif_28] : -0.28

// pull-down binding Z-score value for CUGCUGCUGCUGCUGCUGCUGCUGCUGCUGCUGCUGCUGCUGCUGCUG [r(CUG)16] : -0.0148
